Each entry below carries its reported kon.
Molecular target: T1, human ROR1 Frizzled domain (hROR1-Fz) (human, UniProt Q01973 165-305)
T1 construct: Acro Biosystems, made in HEK293
T1 sequence (Q01973 other isoform, or with tags, fused parts or gaps): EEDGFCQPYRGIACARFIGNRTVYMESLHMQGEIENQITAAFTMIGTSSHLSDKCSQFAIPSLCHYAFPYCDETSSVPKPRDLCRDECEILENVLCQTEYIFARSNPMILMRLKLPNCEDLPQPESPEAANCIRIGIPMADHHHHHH
Test: SPR Biacore, IgG on anti-Fc, ROR1-Fz analyte
The reply should be a number in M⁻¹ s⁻¹, with the unit left off.

Reference set, count: 2
1) SRP2196-A05 (antibody, V domains shown, His/FLAG-tagged IgG1) VH: EVQLVESGGGLVQPGGSLRLSCAASGFNITNYYIHWVRQAPGKGLEWVGYISPNSGATYQADSVKGRFTISADTSKNTAYLQMNSLRAEDTAVYYCARDSRRYVRSWDYWGQGTLVTVSS VL: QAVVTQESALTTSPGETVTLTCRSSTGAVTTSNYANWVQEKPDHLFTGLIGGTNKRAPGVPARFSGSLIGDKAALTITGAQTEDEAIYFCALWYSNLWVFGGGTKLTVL ... 175000
2) SRP2196-A09 (antibody, V domains shown, His/FLAG-tagged IgG1) VH: EVQLVESGGGLVQPGGSLRLSCAASGFNITGYYIHWVRQAPGKGLEWVGQISPNSGATHYADSVKGRFTISADTSKNTAYLQMNSLRAEDTAVYYCARDSRRYIRSWDYWGQGTLVTVSS VL: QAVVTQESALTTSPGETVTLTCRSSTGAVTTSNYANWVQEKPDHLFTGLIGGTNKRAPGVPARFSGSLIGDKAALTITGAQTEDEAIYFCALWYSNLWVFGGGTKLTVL ... 150000

Moving on to the next binder.
# kon (binder: SRP2196-C01 (antibody, V domains shown, His/FLAG-tagged IgG1) VH: EVQLVESGGGLVQPGGSLRLSCAASGFNIIGYYIHWVRQAPGKGLEWVGSITPLSGATSKADSVKGRFTISADTSKNTAYLQMNSLRAEDTAVYYCARDSRRYIRSWDYWGQGTLVTVSS VL: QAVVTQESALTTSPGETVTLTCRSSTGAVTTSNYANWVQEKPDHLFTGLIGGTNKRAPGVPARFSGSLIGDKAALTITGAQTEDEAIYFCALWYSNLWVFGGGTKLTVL ) is 125000
